# target desc: T1, human glucagon receptor (human, UniProt P47871 26-477)
# T1 construct: whole, on cells; Used as crude membranes of stably transfected HEK293 cells; also called hGcgR; hGLcgR
# T1 sequence (P47871 26-477): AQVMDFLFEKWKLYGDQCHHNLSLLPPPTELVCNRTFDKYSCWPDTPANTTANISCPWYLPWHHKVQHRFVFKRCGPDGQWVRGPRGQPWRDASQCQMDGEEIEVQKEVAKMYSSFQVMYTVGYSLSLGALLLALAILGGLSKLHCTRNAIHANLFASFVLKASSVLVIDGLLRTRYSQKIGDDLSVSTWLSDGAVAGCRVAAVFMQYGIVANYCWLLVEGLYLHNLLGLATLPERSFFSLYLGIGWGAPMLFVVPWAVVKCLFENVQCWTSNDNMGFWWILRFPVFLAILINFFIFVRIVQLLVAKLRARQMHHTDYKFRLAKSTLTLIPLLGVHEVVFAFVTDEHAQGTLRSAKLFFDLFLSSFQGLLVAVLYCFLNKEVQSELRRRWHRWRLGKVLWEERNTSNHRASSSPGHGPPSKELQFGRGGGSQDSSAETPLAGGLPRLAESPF
# experiment notes: SPA, [125I]-Gcg displacement, hGcgR membranes
pKi: −log10 of the molar value.
I would appreciate it if you labelled entries 1 when pKi is 7 or higher, otherwise -1.

Query: Is reported pKi greater than or equal to 7 here: YXEGTXTSDYSIXLDKKAQXDFIEYLIEGGPSSGAPPPS (Aib2; αMeF6; αMeL13; K17((2-[2-(2-Amino-ethoxy)-ethoxy]-acetyl)2-(γ-Glu)-CO-(CH2)18-CO2H); Aib20; C-terminal NH2) [Example 140]
Result: -1

Query: Is reported pKi greater than or equal to 7 here: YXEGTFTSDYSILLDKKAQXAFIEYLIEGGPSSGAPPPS (Aib2; K17(AOC-(2-[2-(2-Amino-ethoxy)-ethoxy]-acetyl)-(γ-Glu)-CO-(CH2)18-CO2H); Aib20; C-terminal NH2) [Example 109]
Result: 1

Query: Is reported pKi greater than or equal to 7 here: YXEGTFTSDYSILLDKKAQXAXIEYLIEGGPSSGAPPPS (Aib2; K17((2-[2-(2-Amino-ethoxy)-ethoxy]-acetyl)2-(γ-Glu)-CO-(CH2)18-CO2H); Aib20; αMeF22; C-terminal NH2) [Example 67]
Result: -1

Query: Is reported pKi greater than or equal to 7 here: YXEGTXTSDLSILLDKKAQXAFIEYLIEGGPSSGAPPPS (Aib2; αMeF6; K17((2-[2-(2-Amino-ethoxy)-ethoxy]-acetyl)2-(γ-Glu)-CO-(CH2)18-CO2H); Aib20; C-terminal NH2) [Example 129]
Result: 1

Query: Is reported pKi greater than or equal to 7 here: YXEGTXTSDYSIXLDKKAQXAFIEYLIEGG (Aib2; αMeF6; αMeL13; K17((2-[2-(2-Amino-ethoxy)-ethoxy]-acetyl)2-(γ-Glu)-CO-(CH2)18-CO2H); Aib20; C-terminal NH2) [Example 99]
Result: 1

Query: Is reported pKi greater than or equal to 7 here: YXEGTXTSDVSIXLDXKAQXEFIXXLIEGGPSSGAPPPS (not fully specified; Aib2; αMeF(2F)6; αMeL13; Orn16; K17((2-[2-(2-Amino-ethoxy)-ethoxy]-acetyl)2-(γ-Glu)-CO-(CH2)16-CO2H); Aib20; D-Glu24; αMeY25; C-terminal NH2) [Example 5]
Result: -1

Query: Is reported pKi greater than or equal to 7 here: XAEGTFTSDYSILLDKKAQXAFIEYLIEGGPSSGAPPPS (N-terminal Ac; D-Tyr1; K17((2-[2-(2-Amino-ethoxy)-ethoxy]-acetyl)2-(γ-Glu)-CO-(CH2)18-CO2H); Aib20; C-terminal NH2) [Example 79]
Result: -1

Query: Is reported pKi greater than or equal to 7 here: YXEGTFTSDYXILLDKKAQXAFIEYLIEGGPSSGAPPPS (Aib2; D-Ser11; K17((2-[2-(2-Amino-ethoxy)-ethoxy]-acetyl)2-(γ-Glu)-CO-(CH2)18-CO2H); Aib20; C-terminal NH2) [Example 81]
Result: -1
